Each recorded value in this set is attributed to patent US20200339690A1.

Target: T1, human LILRA3 (human, UniProt Q8N6C8 24-439)
T1 construct: Over-expressed on CHO-s cells; also called hLILRA3
T1 sequence (Q8N6C8 24-439 limits assumed): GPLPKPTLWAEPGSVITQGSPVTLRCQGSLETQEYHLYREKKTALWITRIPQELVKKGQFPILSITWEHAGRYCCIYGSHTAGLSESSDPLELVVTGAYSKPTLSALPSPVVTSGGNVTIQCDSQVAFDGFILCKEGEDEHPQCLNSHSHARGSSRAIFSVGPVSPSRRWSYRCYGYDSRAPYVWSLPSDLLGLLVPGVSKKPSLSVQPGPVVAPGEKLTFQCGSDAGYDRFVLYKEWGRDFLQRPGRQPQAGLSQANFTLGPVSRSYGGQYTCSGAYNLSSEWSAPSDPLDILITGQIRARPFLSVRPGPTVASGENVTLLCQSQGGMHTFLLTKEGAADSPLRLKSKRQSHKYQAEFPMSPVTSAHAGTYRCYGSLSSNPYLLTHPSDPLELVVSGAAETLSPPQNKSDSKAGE
Assay: flow cytometry, LILRA3 CHOs
Threshold rule: binding (fold over iso) greater than or equal to 1 fold over iso is fulfilled; below that, not fulfilled.

Prompt line: Hi team, for J-04 (antibody, human IgG4 S228P, kappa, V domains shown, Human IgG4 chimera of murine origin) VH: QVQLQQSGAELVRPGASVTLSCKASGYTFADYEIHWVKQTPVHGLEWIGAIDPETGGTAYNQKFKGKAILTADKSSSTAYMELRSLTSEDSAVYYCTRYYDYDDAMDYWGQGTSVTVSS VL: QIVLTQSPAIMSASPGEKVTMTCSASSSVSFMHWYQQKSGTSPKRWIYGTSKLASGVPARFSGSGSGTSYSLTISSMEAEDAATYYCQQWNGNPFTFGSGTKLETKR , is the recorded binding (fold over iso) at or above 1 fold over iso?
Response line: not fulfilled

Prompt line: Hi team, for J-17 (antibody, human IgG4 S228P, kappa, V domains shown, Human IgG4 chimera of murine origin; also called J-17.h) VH: QIQLVQSGPELKKPGETVKISCKASGYTFTTYGLSWVKQTPGKGLKWMGWINTYSGVPTYTDDFKGRFAFSLETSASTAYLQINNLKNEDTATYFCARPYDFDQVGFAYWGQGTLVTVSA VL: SIVMTQTPKFLLVSAGDRVSITCKASQTVSSDVAWYQQKAGQSPKLLIYYASNRYTGVPDRFTGSGYGTDFTFTISTVQAEDLAVYFCQQDYSSPFTFGGGSKLEIKR , is the recorded binding (fold over iso) at or above 1 fold over iso?
Response line: fulfilled

Prompt line: Hi team, for J-19 (antibody, human IgG4 S228P, kappa, V domains shown, Human IgG4 chimera from a rat immunization; also called J-19.h) VH: QVTLKESGPGILQPSHTLSLTCSFSGFSLNTYAMGVSWIRQPSGKGLEWLASIWWNGNKYNNPSLKSRLTVSKDTSNNQAFLKVTSVDTADTATYYCAHSRIIRFTDYVMDAWGQGASVTVSS VL: DIQMTQSPASLSTFLGEPVTIECRASEDIYNDLAWYQQKPGKSPQLLIYNANSLHTGVPSRFSGSGSGTQYSLKINSLQSEDVASYFCQQYYDYPLTFGSGTKLEIKR , is the recorded binding (fold over iso) at or above 1 fold over iso?
Response line: not fulfilled

Prompt line: Hi team, for J-03 (antibody, human IgG4 S228P, kappa, V domains shown, Human IgG4 chimera of murine origin) VH: QVQLQQSGAELVRPGASVTLSCKASGYKFTDYEMHWVKQTPVHGLEWIGAIDPETNGTAYNKKFKGKAILTADKSSSTAYMELRSLTSEDSAVYYCTRGDYDFSAWFAYWGQGTLVTVSA VL: DIVLTQSPASLAVSLGQRATISCRASESVDNYDISFMHWYQQKPGQPPKLLIYRASNLESGIPARFSGSGSRTDFTLTINPVETDDVATYYCQQSNKDPRTFGGGTKLEIKR , is the recorded binding (fold over iso) at or above 1 fold over iso?
Response line: fulfilled
